Study target: UniProt:P42345
Sequence (P42345 1360-2549 limits assumed): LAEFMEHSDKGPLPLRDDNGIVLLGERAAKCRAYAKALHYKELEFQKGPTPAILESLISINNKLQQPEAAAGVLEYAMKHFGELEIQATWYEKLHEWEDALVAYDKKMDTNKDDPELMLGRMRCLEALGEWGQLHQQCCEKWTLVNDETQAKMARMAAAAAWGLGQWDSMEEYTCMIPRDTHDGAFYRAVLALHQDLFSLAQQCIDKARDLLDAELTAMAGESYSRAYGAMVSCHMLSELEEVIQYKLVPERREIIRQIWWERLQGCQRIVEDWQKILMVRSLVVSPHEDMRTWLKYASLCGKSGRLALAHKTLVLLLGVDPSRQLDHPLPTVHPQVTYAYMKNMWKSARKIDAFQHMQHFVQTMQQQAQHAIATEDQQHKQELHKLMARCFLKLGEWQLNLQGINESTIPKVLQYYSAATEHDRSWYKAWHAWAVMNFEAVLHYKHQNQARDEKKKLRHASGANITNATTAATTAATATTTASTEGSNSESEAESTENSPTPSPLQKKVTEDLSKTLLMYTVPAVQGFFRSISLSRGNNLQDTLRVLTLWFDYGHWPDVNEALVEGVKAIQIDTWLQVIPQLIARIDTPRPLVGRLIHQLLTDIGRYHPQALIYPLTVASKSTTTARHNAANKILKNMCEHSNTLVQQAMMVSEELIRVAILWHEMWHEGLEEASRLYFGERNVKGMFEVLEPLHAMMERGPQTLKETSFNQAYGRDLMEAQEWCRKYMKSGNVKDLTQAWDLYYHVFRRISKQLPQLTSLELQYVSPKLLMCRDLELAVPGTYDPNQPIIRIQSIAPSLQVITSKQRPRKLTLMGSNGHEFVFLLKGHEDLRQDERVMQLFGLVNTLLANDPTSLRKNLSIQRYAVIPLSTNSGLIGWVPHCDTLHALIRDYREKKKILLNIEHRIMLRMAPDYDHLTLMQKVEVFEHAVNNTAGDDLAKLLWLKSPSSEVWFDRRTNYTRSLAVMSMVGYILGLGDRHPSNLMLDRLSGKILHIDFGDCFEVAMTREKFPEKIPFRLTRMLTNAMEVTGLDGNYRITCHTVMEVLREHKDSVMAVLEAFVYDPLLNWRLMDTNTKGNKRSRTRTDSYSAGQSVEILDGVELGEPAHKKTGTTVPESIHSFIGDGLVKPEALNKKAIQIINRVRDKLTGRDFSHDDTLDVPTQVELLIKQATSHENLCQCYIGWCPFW
pIC50: −log10 of the molar value.
Attribute: pIC50

Molecule	pIC50
NC(=O)c1cccc(-c2cnc3c(n2)N(CCC2CCOCC2)CC(=O)N3)c1 [Example 33]	6.00 to 6.30

Using the record for COCCN1C(=O)CNc2ncc(-c3cnc(-c4nc[nH]n4)cc3C)nc21 [Example 240] , state its measured pIC50.
6.60 to 11.30

Provide measured pIC50 value, entry: O=C1CN(C[C@H]2CCCO2)c2nc(-c3ccc(-c4nnc[nH]4)cc3)cnc2N1 [Example 67]
6.60 to 11.30

Quick one: give measured pIC50 for CO[C@@H]1CC[C@H](N2CC(=O)Nc3ncc(-c4ccc(C(C)(C)O)nc4)nc32)C1 [Example 52]
6.60 to 11.30

Identify measured pIC50 associated with Cc1cc(-c2cnc3c(n2)N(CCC2CCOCC2)C(=O)CN3)cc2[nH]c(N)nc12 [Example 269]
6.60 to 11.30

Determine its reported pIC50: CO[C@H]1CC[C@@H](CN2C(=O)CNc3ncc(-c4ccc(-c5nc[nH]n5)nc4)nc32)CC1 [Example 155]
6.60 to 11.30

meta.source: patent US11292796B2
